test system: Salmonella typhimurium TA100; test: Ames mutagenicity test; format: cell-based; conditions: TA100, 40 ng/mL
Let's look at some molecules and their measured Number of revertants per plate, Mean ± SD.
readout.kind: Number of revertants per plate, Mean ± SD

molecule: COC(=O)Cn1c(OC)nc2c1c(=O)n(C)c(=O)n2C [Compound 2]
recorded.number: 10

molecule: COc1nc2c(c(=O)n(C)c(=O)n2C)n1CCCC(=O)N1CCN(c2ccccc2)CC1 [Compound 4]
recorded.number: 48

molecule: COc1nc2c(c(=O)n(C)c(=O)n2C)n1CC(=O)O [Compound 1]
recorded.number: 12

molecule: COc1nc2c(c(=O)n(C)c(=O)n2C)n1CCCC(=O)NCc1ccccc1 [Compound 3]
recorded.number: 53

Attribution: paper PMC5756575
